Values compiled from ChEMBL document CHEMBL5291721.

measured on: Voltage-gated inwardly rectifying potassium channel KCNH2 (Homo sapiens, UniProt Q12809)
Sequence (Q12809 whole entry): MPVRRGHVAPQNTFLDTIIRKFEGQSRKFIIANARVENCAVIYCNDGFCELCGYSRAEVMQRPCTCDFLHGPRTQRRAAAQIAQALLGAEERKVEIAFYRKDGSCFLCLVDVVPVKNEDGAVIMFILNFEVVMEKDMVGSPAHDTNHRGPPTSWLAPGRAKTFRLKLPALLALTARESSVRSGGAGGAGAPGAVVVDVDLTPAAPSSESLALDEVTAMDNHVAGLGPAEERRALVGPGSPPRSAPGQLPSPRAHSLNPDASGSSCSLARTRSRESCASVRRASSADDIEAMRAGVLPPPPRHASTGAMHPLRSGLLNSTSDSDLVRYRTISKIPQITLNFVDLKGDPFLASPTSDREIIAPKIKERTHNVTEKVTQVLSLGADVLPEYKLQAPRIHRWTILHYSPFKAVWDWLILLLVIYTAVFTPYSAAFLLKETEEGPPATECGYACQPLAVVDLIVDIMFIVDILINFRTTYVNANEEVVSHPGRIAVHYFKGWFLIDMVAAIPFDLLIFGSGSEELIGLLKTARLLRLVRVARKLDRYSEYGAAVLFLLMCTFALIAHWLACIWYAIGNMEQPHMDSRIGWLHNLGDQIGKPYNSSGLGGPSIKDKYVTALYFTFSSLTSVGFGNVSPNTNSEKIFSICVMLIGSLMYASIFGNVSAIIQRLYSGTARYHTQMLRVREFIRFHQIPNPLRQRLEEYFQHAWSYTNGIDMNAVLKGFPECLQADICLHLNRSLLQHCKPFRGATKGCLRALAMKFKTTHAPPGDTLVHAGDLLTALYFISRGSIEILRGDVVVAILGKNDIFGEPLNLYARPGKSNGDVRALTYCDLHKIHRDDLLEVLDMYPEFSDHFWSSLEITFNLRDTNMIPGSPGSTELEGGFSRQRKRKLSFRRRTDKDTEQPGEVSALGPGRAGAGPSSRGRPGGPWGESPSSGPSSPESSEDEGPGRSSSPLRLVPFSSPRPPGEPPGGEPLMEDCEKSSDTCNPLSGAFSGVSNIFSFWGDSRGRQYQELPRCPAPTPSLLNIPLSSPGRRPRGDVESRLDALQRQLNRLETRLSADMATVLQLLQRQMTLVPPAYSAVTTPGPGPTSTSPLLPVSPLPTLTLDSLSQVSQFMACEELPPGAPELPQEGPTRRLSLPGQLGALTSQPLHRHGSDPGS
Assay type: functional
measurement conditions: human, cellular components; further: assay procedure not described here
assay endpoint: AC50

[ask] Form field: reported AC50 of "THIMEROSAL"
[reply] > 30 µM

###

Answer each item with its documented AC50.
measured on: Neuropeptide Y receptor type 1 (Homo sapiens)
Sequence (P25929 whole entry): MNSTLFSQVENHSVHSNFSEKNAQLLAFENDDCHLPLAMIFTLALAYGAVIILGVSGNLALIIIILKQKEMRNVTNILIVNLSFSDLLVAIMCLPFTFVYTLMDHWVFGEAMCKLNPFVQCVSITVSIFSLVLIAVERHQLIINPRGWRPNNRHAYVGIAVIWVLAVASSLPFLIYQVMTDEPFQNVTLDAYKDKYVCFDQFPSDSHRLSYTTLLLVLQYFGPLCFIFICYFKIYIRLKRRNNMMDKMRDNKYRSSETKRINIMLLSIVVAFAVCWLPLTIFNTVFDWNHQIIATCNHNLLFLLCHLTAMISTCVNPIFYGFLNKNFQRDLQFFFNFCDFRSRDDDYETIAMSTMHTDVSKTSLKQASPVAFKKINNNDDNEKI

[ask] Form field: reported AC50 of "O=C(O)CCCCCCCC(=O)O"
[reply] > 10 µM

[ask] Form field: reported AC50 of O=[N+]([O-])O[C@@H]1CO[C@H]2[C@@H]1OC[C@@H]2O [ISOSORBIDE MONONITRATE]
[reply] > 30 µM

[ask] Form field: reported AC50 of COc1ccccc1OCC(O)CN1CCN(CC(=O)Nc2c(C)cccc2C)CC1 (centres undefined)
[reply] > 30 µM

[ask] Form field: reported AC50 of CCCN1C[C@H](CSC)C[C@@H]2c3cccc4[nH]cc(c34)C[C@H]21 [PERGOLIDE]
[reply] > 30 µM

[ask] Form field: reported AC50 of Cc1cc(O)c(C(=O)N[C@@H](C(=O)N[C@@H]2C(=O)N3C(C(=O)O)=C(CSc4nnnn4C)CS[C@H]23)c2ccc(O)cc2)cn1 [CEFPIRAMIDE]
[reply] > 30 µM

[ask] Form field: reported AC50 of "Cc1nnc2n1-c1ccc(Cl)cc1C(c1ccccc1Cl)=NC2"
[reply] > 30 µM

[ask] Form field: reported AC50 of "C=CCN1C[C@H](C(=O)N(CCCN(C)C)C(=O)NCC)C[C@@H]2c3cccc4[nH]cc(c34)C[C@H]21"
[reply] > 10 µM

[ask] Form field: reported AC50 of "C[C@@H](O)[C@H]1C(=O)N2C(C(=O)O)=C(S[C@@H]3CN[C@H](C(=O)N(C)C)C3)[C@H](C)[C@H]12"
[reply] > 10 µM

[ask] Form field: reported AC50 of CC1=C(C(=O)O)N2C(=O)[C@@H](NC(=O)[C@H](N)c3ccccc3)[C@H]2SC1 [CEPHALEXIN ANHYDROUS]
[reply] > 30 µM

[ask] Form field: reported AC50 of C=CCc1ccccc1OCC(O)CNC(C)C (centres undefined)
[reply] > 30 µM

[ask] Form field: reported AC50 of CN1C(=O)C(O)N=C(c2ccccc2)c2cc(Cl)ccc21 (centres undefined)
[reply] > 30 µM

[ask] Form field: reported AC50 of COc1ccc(CCN(C)CCCC(C#N)(c2cc(OC)c(OC)c(OC)c2)C(C)C)cc1OC (centres undefined)
[reply] > 30 µM

[ask] Form field: reported AC50 of "C#C[C@]1(O)CC[C@H]2[C@@H]3CCc4cc(OC5CCCC5)ccc4[C@H]3CC[C@@]21C"
[reply] > 10 µM

[ask] Form field: reported AC50 of "CCC(CC)(CC(=O)Nc1cccc(/C=C/c2nc(C3CCC3)cs2)c1)C(=O)O"
[reply] > 30 µM

[ask] Form field: reported AC50 of CC(CC(c1ccccc1)c1ccccc1)NC(C)(C)C (centres undefined)
[reply] > 30 µM

[ask] Form field: reported AC50 of "Cc1cccc(Nc2ccccc2C(=O)O)c1C"
[reply] > 10 µM

[ask] Form field: reported AC50 of CN(C)CCC(c1ccc(Cl)cc1)c1ccccn1 (centres undefined)
[reply] > 30 µM

[ask] Form field: reported AC50 of "CN(C)CCc1c[nH]c2ccc(C[C@H]3COC(=O)N3)cc12"
[reply] > 30 µM

[ask] Form field: reported AC50 of CN1C(=O)C(O)N=C(c2ccccc2Cl)c2cc(Cl)ccc21 (centres undefined)
[reply] > 30 µM

[ask] Form field: reported AC50 of OC(CNCC(O)C1CCc2cc(F)ccc2O1)C1CCc2cc(F)ccc2O1 (centres undefined)
[reply] 24 µM

[ask] Form field: reported AC50 of "Clc1ccc2nsnc2c1NC1=NCCN1"
[reply] > 30 µM

[ask] Form field: reported AC50 of "O=C(O)CCCCCCNC1c2ccccc2CCc2ccccc21"
[reply] > 30 µM

[ask] Form field: reported AC50 of "CO[C@@H]1[C@@H](O[C@@H]2O[C@H](C)[C@@H](O[C@H]3C[C@@](C)(O)[C@@H](OC(=O)CC(C)C)[C@H](C)O3)[C@H](N(C)C)[C@H]2O)[C@@H](CC=O)C[C@@H](C)[C@@H](O)/C=C/C=C/C[C@@H](C)OC(=O)C[C@H]1OC(C)=O"
[reply] > 10 µM

[ask] Form field: reported AC50 of "Cn1c(=O)c2c(ncn2CC2OCCO2)n(C)c1=O"
[reply] > 30 µM

[ask] Form field: reported AC50 of "C[C@H]1COc2c(C3(N)CC3)c(F)cc3c(=O)c(C(=O)O)cn1c23"
[reply] > 10 µM

[ask] Form field: reported AC50 of "CC[C@@H](C(N)=O)N1CCCC1=O"
[reply] > 30 µM

[ask] Form field: reported AC50 of "C[C@H](CSC(=O)c1ccccc1)C(=O)N1C[C@@H](Sc2ccccc2)C[C@H]1C(=O)O"
[reply] > 10 µM

[ask] Form field: reported AC50 of "Cc1c(C(=O)NN2CCCCC2)nn(-c2ccc(Cl)cc2Cl)c1-c1ccc(Cl)cc1"
[reply] > 30 µM

[ask] Form field: reported AC50 of "CC(C)(C)c1cc(C(C)(C)C)c(NC(=O)c2c[nH]c3ccccc3c2=O)cc1O"
[reply] > 30 µM

[ask] Form field: reported AC50 of "CCOC(=O)[C@H](CCc1ccccc1)N[C@@H](C)C(=O)N1[C@H](C(=O)O)C[C@@H]2CCC[C@@H]21"
[reply] > 30 µM

[ask] Form field: reported AC50 of "Cc1nc([N+](=O)[O-])cn1-c1ccc([N+](=O)[O-])cc1"
[reply] > 30 µM

[ask] Form field: reported AC50 of CCOC(=O)OC(C)OC1=C(C(=O)Nc2ccccn2)N(C)S(=O)(=O)c2ccccc21 (centres undefined)
[reply] > 30 µM

[ask] Form field: reported AC50 of "Cc1ccc(-n2nccn2)c(C(=O)N2CCN(c3nc4cc(Cl)ccc4o3)CC[C@H]2C)c1"
[reply] > 30 µM

[ask] Form field: reported AC50 of "CS(=O)(=O)c1ccc(C2=C(c3ccccc3)C(=O)OC2)cc1"
[reply] > 30 µM
